ASSAYED TARGET: T1, hu_CXCR2_N-term (1-17)-Trf (human, coupled to carrier protein human transferrin; C-terminal cysteine introduced to enable coupling)
T1 construct: Synthetic linear peptide chemically coupled to the carrier; also called CXCR2_aa1-17_TRF; N-terminal peptide aa1-17, Transferrin-coupled
T1 sequence (P02787 20-698 limits assumed): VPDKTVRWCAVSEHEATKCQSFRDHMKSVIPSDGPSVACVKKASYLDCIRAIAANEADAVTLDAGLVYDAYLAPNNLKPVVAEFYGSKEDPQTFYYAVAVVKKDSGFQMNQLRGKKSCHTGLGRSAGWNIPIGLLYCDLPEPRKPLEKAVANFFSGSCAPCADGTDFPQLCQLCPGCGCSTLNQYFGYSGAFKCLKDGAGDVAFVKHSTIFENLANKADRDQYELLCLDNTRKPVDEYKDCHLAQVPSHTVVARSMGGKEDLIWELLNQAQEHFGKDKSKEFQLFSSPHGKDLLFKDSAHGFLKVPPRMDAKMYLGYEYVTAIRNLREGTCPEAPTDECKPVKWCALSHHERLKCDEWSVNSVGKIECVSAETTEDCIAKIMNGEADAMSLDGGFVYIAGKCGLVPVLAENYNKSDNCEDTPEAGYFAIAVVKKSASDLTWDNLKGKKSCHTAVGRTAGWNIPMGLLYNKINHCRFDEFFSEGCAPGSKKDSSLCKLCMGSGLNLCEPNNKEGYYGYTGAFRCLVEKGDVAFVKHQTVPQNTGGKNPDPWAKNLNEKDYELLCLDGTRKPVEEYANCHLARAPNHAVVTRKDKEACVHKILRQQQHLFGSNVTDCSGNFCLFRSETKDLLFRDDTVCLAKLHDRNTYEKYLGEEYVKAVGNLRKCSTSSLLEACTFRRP
EXPERIMENTAL PROTOCOL: SPR (Biacore), peptide-TRF immobilized, Fab analyte, steady-state fit
METRIC: pKd
pKd (log units): -log10 of the concentration in mol/L.

Param item = CX2-Mab #4 (Fab format) (Fab, V domains shown) VH: EVQLLESGGGLVQPGGSLRLSCAASGFTFSSNGMSWVRQAPGKGLEWVSAISSSGSKTYYADSVKGRFTISRDNSKNTLYLQMNSLRAEDTAVYYCARGYGFDVWGQGTLVTVSS VL: DIVLTQPPSVSGAPGQRVTISCSGSSSNIGVNIVNWYQQLPGTAPKLLIYSTSNRPSGVPDRFSGSKSGTSASLAITGLQAEDEADYYCATRDGISKSVVFGGGTKLTVLG ; retrieve measured pKd.
7.00

Param item = CX2-Mab #6 (Fab format) (Fab, V domains shown) VH: EVQLLESGGGLVQPGGSLRLSCAASGFTFSSYTMSWVRQAPGKGLEWVSAIHSSGSSTYYADSVKGRFTISRDNSKNTLYLQMNSLRAEDTAVYYCARVPAYYGFDHWGQGTLVTVSS VL: DIELTQPPSVSVSPGQTASITCSGDSLGAFYVHWYQQKPGQAPVLVIYRTNNRPSGIPERFSGSNSGNTATLTISGTQAEDEADYYCASYASRNRVFGGGTKLTVLG ; retrieve measured pKd.
6.60

Param item = CX2-Mab #5 (Fab format) (Fab, V domains shown) VH: EVQLLESGGGLVQPGGSLRLSCAASGFTFNSNAMSWVRQAPGKGLEWVSFISYSGSHTYYADSVKGRFTISRDNSKNTLYLQMNSLRAEDTAVYYCARYTRFLSRPAFDPWGQGTLVTVSS VL: DIVLTQPPSVSGAPGQRVTISCTGSSSNIGAGYDVHWYQQLPGTAPKLLIYYNSKRPSGVPDRFSGSKSGTSASLAITGLQAEDEADYYCGAYDRKMNSYVFGGGTKLTVLG ; retrieve measured pKd.
6.83

Param item = CX2-Mab #1 (Fab format) (Fab, V domains shown) VH: QVQLVQSGAEVKKPGSSVKVSCKASGGTFSSYAISWVRQAPGQGLEWMGGIIPIVGEAKYAQKFQGRVTITADESTSTAYMELSSLRSEDTAVYYCARDSSGYDGYYAFAYWGQGTQVTVSS VL: DIVLTQPPSVSGAPGQRGTISCSGSSSNIGSSSVNWYQQLPGTAPKLLIYRNNQRPSGVPDRFSGSKSGTSASLAITGLQAEDEADYYCGATDFSANQVVFGGGTKLTVLG ; retrieve measured pKd.
6.57

Param item = CX2-Mab #2 (Fab format) (Fab, V domains shown) VH: QVQLVQSGAEVKKPGASVKVSCKASGYTFSRYAMHWVRQAPGQGLEWMGVINPYNGNTRYAQKFQGRVTMTRDTSISTAYMELSRLRSEDTAVYYCARGSHIQAGAFDYWGQGTLVTVSS VL: DIQMTQSPSSLSASVGDRVTITCRASQGINNRLNWYQQKPGKAPKLLIYDGSSLQSGVPSRFSGSGSGTDFTLTISSLQPEDFATYYCQQYIHFPVTFGQGTKVEIKR ; retrieve measured pKd.
6.68

Param item = CX2-Mab #3 (Fab format) (Fab, V domains shown) VH: EVQLLESGGGLVQPGGSLRLSCAASGFTFSSYWMSWVRQAPGKGLEWVSVISYSGSETFYADSVKGRFTISRDNSKNTLYLQMNSLRAEDTAVYYCARGRVGYAFDYWGQGTLVTVSS VL: DIVLTQPPSVSGAPGQRVTISCSGSSSNIGVNYVNWYQQLPGTAPKLLIYSNNQRPSGVPDRFSGSKSGTSASLAITGLQAEDEADYYCQSRASGFYSVVFGGGTKLTVLG ; retrieve measured pKd.
6.50
